All figures here come from ChEMBL document CHEMBL2401724.

experiment: Acute toxicity in ip dosed C57BL/6 mouse after 14 days
Assay type: organism-based
condition info: in vivo
measured metric: LD50 at 336 h

smiles repr	measured metric	result
Cc1c2c(cc[n+]1Cc1ccccc1)c1ccccc1n2CCCc1ccccc1.[Br-]	LD50 at 336 h	2.5 mg/kg
[Br-].c1ccc(CCCn2c3ccccc3c3cc[n+](Cc4ccccc4)cc32)cc1	LD50 at 336 h	8.9 mg/kg
Fc1ccc(C[n+]2ccc3c4ccccc4n(CCCc4ccccc4)c3c2)cc1.[Cl-]	LD50 at 336 h	12.5 mg/kg
COc1ccc(-c2c3c(cc[n+]2Cc2ccccc2)c2ccccc2n3CCCc2ccccc2)cc1.[Br-]	LD50 at 336 h	6.25 mg/kg
Clc1cccc(C[n+]2ccc3c4ccccc4n(CCCc4ccccc4)c3c2)c1.[Br-]	LD50 at 336 h	30 mg/kg
COc1ccc(Cn2c3ccccc3c3cc[n+](Cc4ccccc4)cc32)cc1.[Br-]	LD50 at 336 h	19.5 mg/kg
